Values from the supplement of paper PMC5998384

System: HeLa Kyoto
testDescription: melting temperature (median over replicates), in situ; higher = more thermally stable
measurementParameters: cell cycle stage: G1/S
quantity: melting temperature (°C)
# output: bare number, implied unit °C

The examples below pair each entry with its known result.
macromoleculeSequence | melting temperature [°C]
MELTIFILRLAIYILTFPLYLLNFLGLWSWICKKWFPYFLVRFTVIYNEQMASKKRELFSNLQEFAGPSGKLSLLEVGCGTGANFKFYPPGCRVTCIDPNPNFEKFLIKSIAENRHLQFERFVVAAGENMHQVADGSVDVVVCTLVLCSVKNQERILREVCRVLRPGGAFYFMEHVAAECSTWNYFWQQVLDPAWHLLFDGCNLTRESWKALERASFSKLKLQHIQAPLSWELVRPHIYGYAVK [METTL7A] | 57.6
MGLTVSALFSRIFGKKQMRILMVGLDAAGKTTILYKLKLGEIVTTIPTIGFNVETVEYKNICFTVWDVGGQDKIRPLWRHYFQNTQGLIFVVDSNDRERVQESADELQKMLQEDELRDAVLLVFANKQDMPNAMPVSELTDKLGLQHLRSRTWYVQATCATQGTGLYDGLDWLSHELSKR [ARF5] | 55.4

Lab note: measured melting temperature of MPVWGGGNKCGACGRTVYHAEEVQCDGRSFHRCCFLCMVCRKNLDSTTVAIHDEEIYCKSCYGKKYGPKGYGYGQGAGTLNMDRGERLGIKPESVQPHRPTTNPNTSKFAQKYGGAEKCSRCGDSVYAAEKIIGAGKPWHKNCFRCAKCGKSLESTTLTEKEGEIYCKGCYAKNFGPKGFGYGQGAGALVHAQ [CSRP2] was 59.4

###

Test system: HeLa Kyoto
testDescription: thermal stability score vs G1/S (z-score of summed log2 fold changes over temperatures); higher = more thermally stable than in G1/S
measurementParameters: cell cycle stage: early G1 (4.5 h after nocodazole release)
Listing of entries alongside the reported thermal stability score.

macromoleculeSequence | thermal stability score
MSRYLRPPNTSLFVRNVADDTRSEDLRREFGRYGPIVDVYVPLDFYTRRPRGFAYVQFEDVRDAEDALHNLDRKWICGRQIEIQFAQGDRKTPNQMKAKEGRNVYSSSRYDDYDRYRRSRSRSYERRRSRSRSFDYNYRRSYSPRNSRPTGRPRRSRSHSDNDRFKHRNRSFSRSKSNSRSRSKSQPKKEMKAKSRSRSASHTKTRGTSKTDSKTHYKSGSRYEKESRKKEPPRSKSQSRSQSRSRSKSRSRSWTSPKSSGH [SRSF10] | 0.817

Kindly consider the entry below.
The recorded thermal stability score with HeLa Kyoto for MSDGDYDYLIKFLALGDSGVGKTSVLYQYTDGKFNSKFITTVGIDFREKRVVYRASGPDGATGRGQRIHLQLWDTAGQERFRSLTTAFFRDAMGFLLLFDLTNEQSFLNVRNWISQLQMHAYCENPDIVLCGNKSDLEDQRVVKEEEAIALAEKYGIPYFETSAANGTNISQAIEMLLDLIMKRMERCVDKSWIPEGVVRSNGHASTDQLSEEKEKGACGC [RAB27A] was 2.41

###

Test system: HeLa Kyoto
testDescription: solubility change mitosis vs G1/S (difference of NP-40 vs SDS log2 ratios) (log2 ratio difference); higher = more soluble in mitosis
quantity: solubility change mitosis (log2)
Please respond with just the number, no unit label.

As a guide, the following entries are already answered.
substance | recordedValue
GORASP2 | -0.317
MYTAIPQSGSPFPGSVQDPGLHVWRVEKLKPVPVAQENQGVFFSGDSYLVLHNGPEEVSHLHLWIGQQSSRDEQGACAVLAVHLNTLLGERPVQHREVQGNESDLFMSYFPRGLKYQEGGVESAFHKTSTGAPAAIKKLYQVKGKKNIRATERALNWDSFNTGDCFILDLGQNIFAWCGGKSNILERNKARDLALAIRDSERQGKAQVEIVTDGEEPAEMIQVLGPKPALKEGNPEEDLTADKANAQAAALYKVSDATGQMNLTKVADSSPFALELLISDDCFVLDNGLCGKIYIWKGRKANEKERQAALQVAEGFISRMQYAPNTQVEILPQGHESPIFKQFFKDWK [CAPG] | -0.0974

Notebook: MAAQIPESDQIKQFKEFLGTYNKLTETCFLDCVKDFTTREVKPEETTCSEHCLQKYLKMTQRISMRFQEYHIQQNEALAAKAGLLGQPR [TIMM9] , solubility change mitosis (log2) read as 0.239
